Hey, just so you know, these numbers are from PubChem BioAssay AID686971.

ASSAY_OVERVIEW: qHTS for induction of synthetic lethality in tumor cells producing 2HG: qHTS for the HT-1080-IDH1KD cell line
ASSAY_SETUP: HT-1080 IDH1 knockdown viability, ATP luminescence, 48 h; series mostly up to 46.1 µM
In all, about 360,000 compounds went through this assay and about 7,500 (2.1%) were called active. Inconclusive results (about 8%) are left out. The call rests on the fitted dose curve; in most records, active means well fitted cell-killing curve with a large enough effect; inconclusive means small, poorly fitted or top-dose-only effect, or effect the other way, or another doubt; inactive means no such curve, though single readings can be large or run the other way. This excerpt belongs to a sample that is enriched for actives.
In this exercise, the only acceptable responses are y for active, n for inactive

[
  {
    "MOLECULE": "c1ccc(N2Cc3ccccc3-n3nncc3C2)nc1",
    "CLASS_NAME": "n"
  },
  {
    "MOLECULE": "CCC(=O)OC(Cc1ccccc1)(c1ccccc1)C(C)CN(C)C (stereo unspecified)",
    "CLASS_NAME": "n"
  },
  {
    "MOLECULE": "CCn1cc(CN2CCCC(C(=O)c3cccc(C(F)(F)F)c3)C2)cn1 (stereo unspecified)",
    "CLASS_NAME": "n"
  },
  {
    "MOLECULE": "CCC1(CC(C)c2ccccc2)C(=O)NC(=O)NC1=O (stereo unspecified)",
    "CLASS_NAME": "n"
  },
  {
    "MOLECULE": "Cc1cc2ccccn2c1C(C[N+](=O)[O-])c1c(F)cccc1Cl (stereo unspecified)",
    "CLASS_NAME": "y"
  }
]

(Q) Please state the recorded outcome for this molecule: COc1ccc(C(=O)CC2C(=O)N(C)C(=O)N(C)C2=O)cc1
(A) n

---

ASSAY_OVERVIEW: qHTS for induction of synthetic lethality in tumor cells producing 2HG: qHTS for the HT-1080-IDH1KD cell line
ASSAY_SETUP: HT-1080 IDH1 knockdown viability, ATP luminescence, 48 h; series mostly up to 46.1 µM
The campaign covered roughly 360,000 compounds. About 7,500 (2.1%) were called active. Another 8% or so got no clear call; they are omitted. The call rests on the fitted dose curve; in most records, active means well fitted cell-killing curve with a large enough effect; inconclusive means small, poorly fitted or top-dose-only effect, or effect the other way, or another doubt; inactive means no such curve, though single readings can be large or run the other way. Only a selection was taken, and actives are over-represented in it overall.
Hi there, use one of these labels in your reply, thanks! active, inactive

Check out these entries, answers already filled in.
[
  {
    "COMPOUND": "CNC(=O)O/N=C(\\N)Cc1csc2ccc(Cl)cc12",
    "CLASS_NAME": "active"
  },
  {
    "COMPOUND": "CC(=O)Nc1ccccc1C(=O)OCC(=O)c1cccc2ccccc12",
    "CLASS_NAME": "inactive"
  },
  {
    "COMPOUND": "COc1cccc(C(c2nnnn2-c2ccc3c(c2)OCCO3)N2CCC3(CC2)C(=O)NCN3c2ccccc2)c1OC (stereo not given)",
    "CLASS_NAME": "active"
  },
  {
    "COMPOUND": "CCOC(=O)CC(SP1(=S)OCC2(CCCCO2)C(C2CCCCO2)O1)C(=O)OCC (stereo not given)",
    "CLASS_NAME": "inactive"
  },
  {
    "COMPOUND": "c1ccc(C(CN2CCCCC2)c2ccccc2)cc1",
    "CLASS_NAME": "inactive"
  },
  {
    "COMPOUND": "COC1C(O)C(C)OC(OC2CCC3(C=O)C(CCC4C3CCC3(C)C(C5=CC(=O)OC5)CCC43O)C2)C1O (stereo not given)",
    "CLASS_NAME": "active"
  }
]

Okay, next one:
(Q) Fill in: this test's call for COc1ccc(N2C(=O)/C(=C/c3ccco3)C(=O)NC2=S)cc1 is ___
(A) inactive

---

ASSAY_OVERVIEW: qHTS for induction of synthetic lethality in tumor cells producing 2HG: qHTS for the HT-1080-IDH1KD cell line
ASSAY_SETUP: HT-1080 IDH1 knockdown viability, ATP luminescence, 48 h; series mostly up to 46.1 µM
The whole screen tested about 360,000 compounds, of which about 7,500 (2.1%) were called active. Roughly 8% stayed inconclusive and do not appear here. Calls follow the shape of the dose curve; as a rule, active = well fitted cell-killing curve with a large enough effect; inconclusive = small, poorly fitted or top-dose-only effect, or effect the other way, or another doubt; inactive = no such curve, though single readings can be large or run the other way. What follows is part of a selection rich in actives, with near analogues and random picks from the rest.
Select the correct class. Options are YES = active, NO = inactive and nothing else.

These solved cases illustrate the format of a correct answer.
[
  {
    "MOLECULE": "CC1CCCN1CCC(C(N)=O)(c1ccccc1)c1ccccc1 (stereo not given)",
    "CLASS_NAME": "NO"
  },
  {
    "MOLECULE": "C=CCN1C(=O)C2(C(C(=O)OCC)=C(N)Oc3c2c(=O)oc2ccccc32)c2ccccc21 (stereo not given)",
    "CLASS_NAME": "NO"
  },
  {
    "MOLECULE": "Cc1nc2ccccc2c(=O)n1-c1ccc(Cl)cc1Cl",
    "CLASS_NAME": "NO"
  },
  {
    "MOLECULE": "CCOc1ccc(-c2cc(C)[n+](CCN(CC)CC)c(-c3ccc(OCC)cc3)c2)cc1",
    "CLASS_NAME": "YES"
  },
  {
    "MOLECULE": "O=[N+]([O-])c1ccc(Cl)c(Cl)c1",
    "CLASS_NAME": "NO"
  }
]

(Q) State the result this test recorded for COc1cc(C(=O)N2Cc3ccc(Br)cc3-n3nncc3C2)cc(OC)c1OC .
(A) NO

(Q) How was CCOC(=O)C1(c2ccccc2)CCN(CC(O)c2ccc(NC(C)=O)cc2)CC1 (stereo not given) classified in this test?
(A) NO

(Q) Would you mind telling me which call this test gave C=C(C)C1(CCCC)C(=O)NC(=S)NC1=O ?
(A) NO

(Q) Hey, what did the test say about S=C(NCCc1ccccc1)N1Cc2cc(N3CCOCC3)ccc2-n2nncc2C1 ?
(A) NO

(Q) # outcome recorded in this test, key = CN(C)CC1Oc2ccccc2OC1(O)c1ccccc1 (stereo not given)
(A) YES

(Q) Would you mind telling me which call this test gave O=C1NC(=O)C(CCOc2ccccc2)(CCc2ccccc2)C(=O)N1 ?
(A) NO

(Q) Which result was noted for this molecule in the test: CCN(CC)CCOC(=O)c1cc2cc(COC)ccc2o1
(A) NO

(Q) Which result was noted for this molecule in the test: O=c1c2ccccc2nc(/C=C/c2ccco2)n1-c1ccccc1O
(A) NO

(Q) Dear all, I need the recorded test outcome for CN1CCc2cc3c(cc2[C@H]1[C@@H]1OC(=O)c2c1ccc1c2OCO1)OCO3 , thank you.
(A) NO

(Q) Short answer needed: outcome of this test for Cc1nc2nc(C)c(CCC(=O)N3CCC4(CC3)OCCO4)c(C)n2n1 ?
(A) NO

(Q) For Cc1ccc(-n2c(O)c(C=NCC3CCCO3)c(=O)[nH]c2=O)c(C)c1 (stereo not given) , which call appears in the assay record?
(A) NO

(Q) Given Cc1ccc(OC(=O)N(C)C[C@@H]2OCc3cnnn3CCCC(=O)N([C@H](C)CO)C[C@@H]2C)cc1 , state the outcome it received in this test.
(A) NO

---

ASSAY_OVERVIEW: qHTS for induction of synthetic lethality in tumor cells producing 2HG: qHTS for the HT-1080-IDH1KD cell line
ASSAY_SETUP: HT-1080 IDH1 knockdown viability, ATP luminescence, 48 h; series mostly up to 46.1 µM
Out of some 360,000 compounds screened, about 7,500 (2.1%) were called active. Inconclusive results (about 8%) are left out. Many of the other results were omitted from the sample, so actives are more common in it than they were.

[
  {
    "COMPOUND": "CCN1C(=O)C(=Cc2c(C)n(CC(=O)NCC3CCCO3)c3ccccc23)C(=O)N(CC)C1=S (stereo not drawn)",
    "outcome": "inactive"
  },
  {
    "COMPOUND": "COc1cccc(OC)c1C(=O)NC(=S)N1C[C@H]2C[C@H](C1)c1cccc(=O)n1C2",
    "outcome": "inactive"
  },
  {
    "COMPOUND": "CNC(=O)O/N=C(\\N)Cc1csc2ccccc12",
    "outcome": "inactive"
  }
]

---

ASSAY_OVERVIEW: qHTS for induction of synthetic lethality in tumor cells producing 2HG: qHTS for the HT-1080-IDH1KD cell line
ASSAY_SETUP: HT-1080 IDH1 knockdown viability, ATP luminescence, 48 h; series mostly up to 46.1 µM
Out of some 360,000 compounds screened, about 7,500 (2.1%) were called active. Roughly 8% stayed inconclusive and do not appear here. The call rests on the fitted dose curve; in most records, active means well fitted cell-killing curve with a large enough effect; inconclusive means small, poorly fitted or top-dose-only effect, or effect the other way, or another doubt; inactive means no such curve, though single readings can be large or run the other way. Many of the other results were omitted from the sample, so actives are more common in it than they were.
The reply should be one of these categories: active, inactive

Worked cases, answers included:
[
  {
    "COMPOUND": "Cc1cc(-c2ccc(N)c(C)c2)ccc1N",
    "CLASS_NAME": "inactive"
  },
  {
    "COMPOUND": "C[C@]12CCC3C(CC[C@H]4[C@H](O)[C@H](O)CC[C@]34C)C1CC[C@@H]2O (stereo partly drawn)",
    "CLASS_NAME": "inactive"
  },
  {
    "COMPOUND": "Cc1cc(C)c2c(c1)NP(=S)(c1ccccc1)N2 (stereo not drawn)",
    "CLASS_NAME": "inactive"
  },
  {
    "COMPOUND": "CCOC(=O)CNC(=O)N1Cc2cc(N3CCCCC3)ccc2-n2nncc2C1",
    "CLASS_NAME": "inactive"
  },
  {
    "COMPOUND": "CSCCC(c1nnnn1C(C)(C)C)N1CCC(n2c(=O)[nH]c3ccccc32)CC1 (stereo not drawn)",
    "CLASS_NAME": "inactive"
  },
  {
    "COMPOUND": "COC(=O)C1=C(c2ccccc2)C[C@@H]2CC[C@H]1N2C(=O)NCc1ccco1",
    "CLASS_NAME": "inactive"
  }
]

(Q) Which outcome was entered for the compound CCN1CC2C3CCC(C)(O3)C2C1 (stereo not drawn) in this test?
(A) inactive

(Q) Just curious, what result did O=c1c2ccccc2[nH]c(=S)n1-c1cccc(Cl)c1 get here?
(A) inactive

(Q) What was the test verdict on O=P(OC1=CCCCC1)(c1ccccc1)c1ccccc1 ?
(A) inactive

(Q) What did the test return for O=C1C2(Cl)C3(Cl)C4(Cl)C(Cl)(Cl)C5(Cl)C3(Cl)C1(Cl)C5(Cl)C24Cl (stereo not drawn) ?
(A) active

(Q) Look up the recorded call for c1cc2c(cc1CCNC1CCCCCC1)OCO2 in this test.
(A) inactive

(Q) Call for entry CC=C(C)C(=O)OC1CCN2CC=C(COC(=O)C(O)(C(C)OC)C(C)(C)O)C12 (stereo not drawn) :
(A) inactive

(Q) Query: recorded result category for CN1CCN(Cc2ccc(OC(F)(F)F)cc2)CC1 in this test
(A) inactive
